- TESTED_TARGET: T1, oligopeptide PSGHLDM (SEQ ID NO: 98)
- T1 construct: Synthetic peptide, part of Loop C of AQP3
- T1 peptide: PSGHLDM
- PROTOCOL_NOTES: ELISA on coated peptide
Parameter threshold = 0.7. Response is yes (1) when binding signal (plate reader) meets or exceeds it, else no (0).

BINDER	CLASS_ASSIGNMENT
Antibody J (antibody, mouse IgG2a, kappa, V domains shown, also called anti AQP3 antibody J) VH: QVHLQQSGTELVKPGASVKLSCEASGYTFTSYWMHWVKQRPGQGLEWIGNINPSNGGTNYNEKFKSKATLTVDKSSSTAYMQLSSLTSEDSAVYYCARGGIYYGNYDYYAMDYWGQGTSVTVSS VL: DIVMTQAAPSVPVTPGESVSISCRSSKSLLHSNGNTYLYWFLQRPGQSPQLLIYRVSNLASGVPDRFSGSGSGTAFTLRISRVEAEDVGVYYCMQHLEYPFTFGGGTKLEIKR	no (0)
Antibody C (antibody, mouse IgG2a, kappa, V domains shown, also called anti AQP3 antibody C) VH: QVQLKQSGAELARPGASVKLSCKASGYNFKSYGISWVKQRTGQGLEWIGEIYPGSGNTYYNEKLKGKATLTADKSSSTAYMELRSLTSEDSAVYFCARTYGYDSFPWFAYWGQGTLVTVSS VL: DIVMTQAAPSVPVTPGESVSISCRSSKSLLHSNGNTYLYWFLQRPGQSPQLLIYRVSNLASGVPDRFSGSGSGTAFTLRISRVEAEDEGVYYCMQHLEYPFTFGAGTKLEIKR	no (0)
BC-B10 (IgG) (antibody, V domains shown, also called anti AQP3 antibody BC-B10) VH: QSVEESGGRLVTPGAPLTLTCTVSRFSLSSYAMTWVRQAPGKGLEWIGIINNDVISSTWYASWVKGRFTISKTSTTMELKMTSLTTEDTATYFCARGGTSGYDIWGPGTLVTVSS VL: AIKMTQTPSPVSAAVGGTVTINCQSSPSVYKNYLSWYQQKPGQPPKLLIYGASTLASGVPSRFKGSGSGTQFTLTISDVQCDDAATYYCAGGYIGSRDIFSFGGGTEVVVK	yes (1)
BC-H9 (IgG) (antibody, V domains shown, also called anti AQP3 antibody BC-H9) VH: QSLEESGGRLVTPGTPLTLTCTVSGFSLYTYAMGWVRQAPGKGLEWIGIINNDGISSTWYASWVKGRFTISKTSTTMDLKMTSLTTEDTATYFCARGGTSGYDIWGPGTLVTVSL VL: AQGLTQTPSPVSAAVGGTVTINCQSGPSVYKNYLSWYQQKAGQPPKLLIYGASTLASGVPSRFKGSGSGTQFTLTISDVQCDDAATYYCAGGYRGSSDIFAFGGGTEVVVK	yes (1)
SC-F8 (IgG) (antibody, V domains shown, also called anti AQP3 antibody SC-F8) VH: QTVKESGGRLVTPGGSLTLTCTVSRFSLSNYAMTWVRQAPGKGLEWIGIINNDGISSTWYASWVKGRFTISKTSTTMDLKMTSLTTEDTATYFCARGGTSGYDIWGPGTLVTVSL VL: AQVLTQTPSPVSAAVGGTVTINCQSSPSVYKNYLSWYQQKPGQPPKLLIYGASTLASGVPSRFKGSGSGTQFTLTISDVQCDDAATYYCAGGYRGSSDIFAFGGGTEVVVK	yes (1)
SC-B6 (IgG) (antibody, V domains shown, also called anti AQP3 antibody SC-B6) VH: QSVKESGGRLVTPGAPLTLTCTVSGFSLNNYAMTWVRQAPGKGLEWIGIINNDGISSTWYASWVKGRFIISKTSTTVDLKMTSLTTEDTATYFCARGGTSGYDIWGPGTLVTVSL VL: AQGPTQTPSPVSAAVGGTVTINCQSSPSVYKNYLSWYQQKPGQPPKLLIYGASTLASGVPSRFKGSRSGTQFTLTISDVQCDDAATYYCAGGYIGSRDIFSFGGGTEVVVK	yes (1)
